# Tmax values compiled below
assay: Time taken to reach maximum concentration after administration of 10 umol/kg dose perorally; type: ADME, organism-based; conditions: in vivo, po
Provide the reading as a plain figure in h.

For orientation, consider the following solved cases.
Answer with reported Tmax of CCCN(CCC)[C@@H]1CCc2ccc3[nH]cc(C=O)c3c2C1
2.5

Answer with reported Tmax of CCCN(CCC)[C@H]1CCc2ccc3[nH]cc(C=O)c3c2C1
0.8

Here is the next item to consider.
Answer with reported Tmax of CCCN(CCC)[C@@H]1CCc2ccc3[nH]c(C#N)cc3c2C1
1.25

###

# pED50 values compiled below
organism: Rattus norvegicus; assay: Log concentration to inhibit 5-HTP accumulation was determined in rat limbic system; format: functional
Please reply with the value in numeric form only.

For orientation, consider the following solved cases.
Answer with reported pED50 of CCCN(CCC)C1CCc2ccc3[nH]cc(C#N)c3c2C1 (stereo not drawn)
6.77

Answer with reported pED50 of CCCN(CCC)[C@@H]1CCc2ccc3[nH]c(C#N)cc3c2C1 [U-92,016-A]
6.67

Further cases:
Answer with reported pED50 of CCCN(CCC)C1CCc2ccc3[nH]cc(Cl)c3c2C1 (stereo not drawn)
5.86

###

assay: Time taken to reach maximum concentration after administration of 40 umol/kg dose perorally; format: ADME, organism-based; conditions: in vivo, po
Assay metric: Tmax

Answer with reported Tmax of CCCN(CCC)C1CCc2ccc3[nH]cc(C#N)c3c2C1 (stereo unspecified)
2.25 h

###

organism: Rattus norvegicus; test: The concentration yielding a half maximal decrease of the DOPA was determined in rat limbic system; format: functional
Assay metric: ED50

For orientation, consider the following solved cases.
Answer with reported ED50 of CCCN(CCC)C1CCc2ccc3[nH]cc(C=O)c3c2C1 (centres undefined)
0.3 µmol/kg

Answer with reported ED50 of CCCN(CCC)[C@H]1CCc2ccc3[nH]cc(C=O)c3c2C1
4.33 µmol/kg

Further cases:
Answer with reported ED50 of CCCN(CCC)[C@@H]1CCc2ccc3[nH]c(C#N)cc3c2C1 [U-92,016-A]
2.01 µmol/kg

Answer with reported ED50 of CCCN(CCC)C1CCc2cc3c(C=O)c[nH]c3cc2C1 (centres undefined)
27.8 µmol/kg

###

organism: Rattus norvegicus; assay: The concentration yielding a half maximal decrease of the 5-HTP was determined in rat limbic system.; type: functional
Assay metric: ED50
Put down the number, then write its unit next to it.

Answer with reported ED50 of CCCN(CCC)C1CCc2ccc3[nH]cc(C#N)c3c2C1 (stereo not given)
0.17 µmol/kg

Here is the next item to consider.
Answer with reported ED50 of CCCN(CCC)C1CCc2ccc3[nH]cc(Cl)c3c2C1 (stereo not given)
1.4 µmol/kg

###

target: D(2) dopamine receptor (Rattus norvegicus); assay: Displacement of the radioligand [3H]spiperone from D2 receptor
Sequence (P61169 whole entry): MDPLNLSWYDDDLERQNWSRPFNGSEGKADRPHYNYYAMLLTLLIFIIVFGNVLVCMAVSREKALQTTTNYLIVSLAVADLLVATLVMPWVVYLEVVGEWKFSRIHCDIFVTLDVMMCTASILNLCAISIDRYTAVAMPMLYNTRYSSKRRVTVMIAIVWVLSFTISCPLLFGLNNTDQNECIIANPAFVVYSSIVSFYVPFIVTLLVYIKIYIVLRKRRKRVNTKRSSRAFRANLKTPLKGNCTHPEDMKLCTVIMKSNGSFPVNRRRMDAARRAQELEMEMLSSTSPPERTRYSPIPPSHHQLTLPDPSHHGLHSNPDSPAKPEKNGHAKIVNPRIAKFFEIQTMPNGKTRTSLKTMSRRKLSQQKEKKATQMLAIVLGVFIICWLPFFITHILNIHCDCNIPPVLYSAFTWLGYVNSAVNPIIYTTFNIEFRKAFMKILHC
pKi: −log10 of the molar value.
Use 6 as the dividing line for pKi, with the line itself on the class 1 side and lower values as class 0.

Quick check: does CCCN(CCC)[C@@H]1CCc2ccc3[nH]cc(C=O)c3c2C1 have pKi greater than or equal to 6?
class 1

Further cases:
Quick check: does CCCN(CCC)[C@H]1CCc2ccc3[nH]cc(C#N)c3c2C1 have pKi greater than or equal to 6?
class 0

Quick check: does CCCN(CCC)C1CCc2ccc3[nH]cc(Cl)c3c2C1 (stereo not drawn) have pKi greater than or equal to 6?
class 1

This collection of values is drawn from ChEMBL document CHEMBL1127349.
